experiment: Serum stability assay; type: in vitro ADME, human; conditions: human serum, 2 mg/mL peptide in pH 7.4 PBS mixed with serum 1:4, 37 °C, up to 48 h, RP-HPLC UV 220 nm, 3 independent measurements
Positions of bridges follow the written chain, without caps; N, C: chain ends. Non-standard residues stand in square brackets, D forms with d. Residues, ends and D or L forms follow the SMILES beside them. S5 = C=CCCC[C@](C)(N)C(=O)O
Value kind: TD50 (time at which 50% of the peptide is degraded in the presence of serum) (h)
Express the result in h but write the number alone.

Study these solved cases before continuing.
>>> observed_measurement("CC[C@H](C)[C@H](NC(=O)[C@H](CCCNC(=N)N)NC(=O)[C@H](CCCCN)NC(C)=O)C(=O)N[C@H](C(=O)N[C@@H](CCC(N)=O)C(=O)N[C@@H](CCCNC(=N)N)C(=O)N[C@@]1(C)CCCC=CCCC[C@@](C)(C(=O)N[C@@H](CCCNC(=N)N)C(N)=O)NC(=O)[C@H](Cc2ccccc2)NC(=O)[C@H](CC(=O)O)NC(=O)[C@H](CCCCN)NC1=O)C(C)C [KR-12 (I7, L11)] (Ac-KRIVQR[S5]KDF[S5]R-NH2; staple 7-11)")
11.44
>>> observed_measurement("CC(=O)N[C@@H](CCCCN)C(=O)N[C@@H](CCCNC(=N)N)C(=O)N[C@@]1(C)CCCC=CCCC[C@@](C)(C(=O)N[C@@H](CCCCN)C(=O)N[C@@H](CC(=O)O)C(=O)N[C@@H](Cc2ccccc2)C(=O)N[C@@H](CC(C)C)C(=O)N[C@@H](CCCNC(=N)N)C(N)=O)NC(=O)[C@H](CCCNC(=N)N)NC(=O)[C@H](CCC(N)=O)NC(=O)[C@H](C(C)C)NC1=O [KR-12 (I3, I7)] (Ac-KR[S5]VQR[S5]KDFLR-NH2; staple 3-7)")
4.21
>>> observed_measurement("CC[C@H](C)[C@H](NC(=O)[C@]1(C)CCCC=CCCC[C@](C)(NC(=O)[C@H](CCCCN)NC(C)=O)C(=O)N[C@@H]([C@@H](C)CC)C(=O)N[C@@H](C(C)C)C(=O)N[C@@H](CCC(N)=O)C(=O)N1)C(=O)N[C@@H](CCCCN)C(=O)N[C@@H](CC(=O)O)C(=O)N[C@@H](Cc1ccccc1)C(=O)N[C@@H](CC(C)C)C(=O)N[C@@H](CCCNC(=N)N)C(N)=O [KR-12 (R2, R6)] (Ac-K[S5]IVQ[S5]IKDFLR-NH2; staple 2-6)")
2.38

Give its TD50 (time at which 50% of the peptide is degraded in the presence of serum) value. Item: CC[C@H](C)[C@@H]1NC(=O)[C@H](CCCNC(=N)N)NC(=O)[C@@](C)(NC(=O)[C@@H](NC(=O)[C@@H](NC(=O)[C@H](CCCNC(=N)N)NC(=O)[C@H](CCCCN)NC(C)=O)[C@@H](C)CC)C(C)C)CCCC=CCCC[C@@](C)(C(=O)N[C@@H](Cc2ccccc2)C(=O)N[C@@H](CC(C)C)C(=O)N[C@@H](CCCNC(=N)N)C(N)=O)NC(=O)[C@H](CCCCN)NC1=O [KR-12 (Q5, D9)] (Ac-KRIV[S5]RIK[S5]FLR-NH2; staple 5-9)
8.91

* * *

Test: Serum stability assay
Type: in vitro ADME, human
Conditions: human serum in pH 7.4 PBS, 37 °C, RP-HPLC; read-out: fraction hydrolyzed within 1 h
Excerpt: Maintaining high stability and presenting high compatibility in the complex physiological environment are important criterions for the clinical translation of AMPs. […] The derivatives were mixed with human serum in pH 7.4 PBS, simulating the degradation process of peptides by proteases in vivo. The percentages of intact derivatives were monitored and determined with time according to the PR-HPLC. […] the supernatant was collected and analyzed by RP-HPLC, with a UV detector monitored at 220 nm. […]
Value kind: metabolised at 1 h, 0.4 mg/mL

Give its metabolised at 1 h, 0.4 mg/mL value. Item: Ac-KRIVQRIKDFLR-NH2 [KR-12, reference compound]
> 50%

* * *

assay: Serum stability assay; type: in vitro ADME, human; details: human serum, 2 mg/mL peptide in pH 7.4 PBS mixed with serum 1:4, 37 °C, up to 48 h, RP-HPLC UV 220 nm, 3 independent measurements
Positions of bridges follow the written chain, without caps; N, C: chain ends. Non-standard residues stand in square brackets, D forms with d. Residues, ends and D or L forms follow the SMILES beside them. S5 = C=CCCC[C@](C)(N)C(=O)O
Value kind: TD50 (time at which 50% of the peptide is degraded in the presence of serum) (h)
Express the result in h but write the number alone.

Give its TD50 (time at which 50% of the peptide is degraded in the presence of serum) value. Item: CC[C@H](C)[C@H](NC(=O)[C@H](CCCNC(=N)N)NC(=O)[C@H](CCCCN)NC(C)=O)C(=O)N[C@H](C(=O)N[C@@H](CCC(N)=O)C(=O)N[C@@H](CCCNC(=N)N)C(=O)N[C@H](C(=O)N[C@@]1(C)CCCC=CCCC[C@@](C)(C(N)=O)NC(=O)[C@H](CC(C)C)NC(=O)[C@H](Cc2ccccc2)NC(=O)[C@H](CC(=O)O)NC1=O)[C@@H](C)CC)C(C)C [KR-12 (K8, R12)] (Ac-KRIVQRI[S5]DFL[S5]-NH2; staple 8-12)
18.28

* * *

system: E. faecalis; details: 24 h
Positions of bridges follow the written chain, without caps; N, C: chain ends. Non-standard residues stand in square brackets, D forms with d. Residues, ends and D or L forms follow the SMILES beside them. R8 = C=CCCCCCC[C@@](C)(N)C(=O)O; S5 = C=CCCC[C@](C)(N)C(=O)O
// reported MIC E. faecalis for each item listed
Express the result in µg/mL but write the number alone.

>>> observed_measurement("CC[C@H](C)[C@@H]1NC(=O)[C@H](CCCNC(=N)N)NC(=O)[C@@](C)(NC(=O)[C@@H](NC(=O)[C@@H](NC(=O)[C@H](CCCNC(=N)N)NC(=O)[C@H](CCCCN)NC(C)=O)[C@@H](C)CC)C(C)C)CCCC=CCCC[C@@](C)(C(=O)N[C@@H](Cc2ccccc2)C(=O)N[C@@H](CC(C)C)C(=O)N[C@@H](CCCNC(=N)N)C(N)=O)NC(=O)[C@H](CCCCN)NC1=O [KR-12 (Q5, D9)] (Ac-KRIV[S5]RIK[S5]FLR-NH2; staple 5-9)")
8
>>> observed_measurement("CC[C@H](C)[C@@H]1NC(=O)[C@H](CCCNC(=N)N)NC(=O)[C@H](CCC(N)=O)NC(=O)[C@H](C(C)C)NC(=O)[C@](C)(NC(=O)[C@H](CCCNC(=N)N)NC(=O)[C@H](CCCCN)NC(C)=O)CCCCCCC=CCCC[C@@](C)(C(=O)N[C@@H](CC(C)C)C(=O)N[C@@H](CCCNC(=N)N)C(N)=O)NC(=O)[C@H](CC(=O)O)NC(=O)[C@H](CCCCN)NC1=O [KR-12 (I3, F10)] (Ac-KR[R8]VQRIKD[S5]LR-NH2; staple 3-10)")
256
>>> observed_measurement("CC[C@H](C)[C@@H]1NC(=O)[C@H](CCCNC(=N)N)NC(=O)[C@H](CCC(N)=O)NC(=O)[C@H](C(C)C)NC(=O)[C@H]([C@@H](C)CC)NC(=O)[C@](C)(NC(=O)[C@H](CCCCN)NC(C)=O)CCCCCCC=CCCC[C@@](C)(C(=O)N[C@@H](Cc2ccccc2)C(=O)N[C@@H](CC(C)C)C(=O)N[C@@H](CCCNC(=N)N)C(N)=O)NC(=O)[C@H](CCCCN)NC1=O [KR-12 (R2, D9)] (Ac-K[R8]IVQRIK[S5]FLR-NH2; staple 2-9)")
256
>>> observed_measurement("CC[C@H](C)[C@H](NC(=O)[C@]1(C)CCCC=CCCC[C@](C)(NC(=O)[C@H](CCCCN)NC(C)=O)C(=O)N[C@@H]([C@@H](C)CC)C(=O)N[C@@H](C(C)C)C(=O)N[C@@H](CCC(N)=O)C(=O)N1)C(=O)N[C@@H](CCCCN)C(=O)N[C@@H](CC(=O)O)C(=O)N[C@@H](Cc1ccccc1)C(=O)N[C@@H](CC(C)C)C(=O)N[C@@H](CCCNC(=N)N)C(N)=O [KR-12 (R2, R6)] (Ac-K[S5]IVQ[S5]IKDFLR-NH2; staple 2-6)")
128

Give its MIC E. faecalis value. Item: CC(=O)N[C@@H](CCCCN)C(=O)N[C@@H](CCCNC(=N)N)C(=O)N[C@@]1(C)CCCC=CCCC[C@@](C)(C(=O)N[C@@H](CCCCN)C(=O)N[C@@H](CC(=O)O)C(=O)N[C@@H](Cc2ccccc2)C(=O)N[C@@H](CC(C)C)C(=O)N[C@@H](CCCNC(=N)N)C(N)=O)NC(=O)[C@H](CCCNC(=N)N)NC(=O)[C@H](CCC(N)=O)NC(=O)[C@H](C(C)C)NC1=O [KR-12 (I3, I7)] (Ac-KR[S5]VQR[S5]KDFLR-NH2; staple 3-7)
16
